# target or system: Cytochrome P450 3A4 (Homo sapiens, UniProt P08684)
# Sequence (P08684 whole entry): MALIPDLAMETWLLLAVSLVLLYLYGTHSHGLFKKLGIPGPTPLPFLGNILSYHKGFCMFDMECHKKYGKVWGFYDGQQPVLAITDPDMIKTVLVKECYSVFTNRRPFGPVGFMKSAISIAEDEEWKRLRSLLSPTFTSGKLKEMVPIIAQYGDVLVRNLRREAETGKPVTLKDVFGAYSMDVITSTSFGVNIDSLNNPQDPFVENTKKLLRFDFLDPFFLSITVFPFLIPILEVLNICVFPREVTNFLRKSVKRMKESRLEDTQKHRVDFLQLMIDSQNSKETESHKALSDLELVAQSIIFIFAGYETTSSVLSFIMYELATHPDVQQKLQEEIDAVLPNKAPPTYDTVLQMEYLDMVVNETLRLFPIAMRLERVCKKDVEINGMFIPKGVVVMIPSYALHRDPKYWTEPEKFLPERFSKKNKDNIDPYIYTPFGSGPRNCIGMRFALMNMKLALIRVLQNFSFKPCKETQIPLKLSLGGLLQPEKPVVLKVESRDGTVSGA
property measured: IC50
Give the value; after it, write the unit.

GET /values?readout=IC50&system=Cytochrome P450 3A4 (Homo sapiens, UniProt P08684)&item= Nc1nc2cnc(C(=O)N3CCOC[C@@H]3c3ccc(C(F)(F)F)cc3)cc2c2c1COC2
124 µM

----------
# assay name: in vivo
# test settings: beagle, dog, iv, 0.5 mg/kg
property measured: Vd (L/kg)
Hi! Could you send only the number? It should be in L/kg, unit omitted.

Value lookup for Vd; key = Cc1cc2cc(C(=O)N(Cc3ccc(C(F)(F)F)cn3)[C@H](C)c3ncccn3)ccc2nc1N
1.9

----------
# assay name: Protein binding in mouse plasma assessed as unbound fraction by ultracentrifugation
# test settings: mouse plasma
So I've got a bunch of compounds here, and I need their fraction unbound values.
Answer as a number with no unit attached.

Please look up its fraction unbound: C[C@H]1OCc2c1c(N)nc1cnc(C(=O)N3CCOC[C@@H]3c3ccc(C(F)(F)F)cc3)cc21
0.09

Entry to check: Nc1nc2ccc(C(=O)N3CCOC[C@@H]3c3ccc(C(F)(F)F)cc3)cc2c2c1COC2
0.05

Query CN(Cc1ccc(C(F)(F)F)cn1)C(=O)c1ccc2nc(N)c3c(c2c1)COC3 next
0.21

Next: C[C@@H]1COC[C@H](c2ccc(C(F)(F)F)cc2)N1C(=O)c1cc2c3c(c(N)nc2cn1)COC3
0.08

Record: Nc1nc2ccc(C(=O)N3CCOC[C@@H]3c3ccc(C(F)(F)F)nc3)cc2c2c1COC2
0.27

// next record C[C@H](c1ncccn1)N(Cc1ccc(C(F)(F)F)cn1)C(=O)c1ccc2nc(N)c3c(c2c1)COC3
0.23

Try the compound CCN(Cc1ccc(C(F)(F)F)cn1)C(=O)c1ccc2nc(N)c3c(c2c1)COC3
0.12

Quick one: Nc1nc2ccc(C(=O)N3CCOC[C@@H]3c3ccc(C(F)(F)F)cn3)cc2c2c1COC2
0.18

----------
# assay name: Metabolic stability in human liver microsomes assessed as intrinsic clearance at 0.5 uM incubated for 40 mins in presence of NADPH
# Format: ADME, Microsome
# test settings: read-out: CLH
property measured: microsomal CLint at 0.5 µM (µL/min/mg)
Write the answer as a number in µL/min/mg, unit excluded.

Which microsomal CLint at 0.5 µM value is on record for Nc1nc2ccc(C(=O)N3CCCC3c3ccc(C(F)(F)F)cn3)cc2c2c1COC2 (centres undefined) ?
57

And for C[C@H](c1ncccn1)N(Cc1ccc(C(F)(F)F)cn1)C(=O)c1ccc2nc(N)c3c(c2c1)COC3 ?
129

Input Nc1nc2ncc(C(=O)N3CCOCC3c3ccc(C(F)(F)F)cc3)cc2c2c1COC2 (centres undefined)
17

Thanks! And C[C@@H]1OCc2c1c(N)nc1cnc(C(=O)N3CCOC[C@@H]3c3ccc(C(F)(F)F)cc3)cc21 ?
49

How about Cc1cc2cc(C(=O)N(Cc3ccc(C(F)(F)F)cn3)[C@H](C)c3ncccn3)ccc2nc1N ?
19

Now the same for C[C@H](c1ncccn1)N(Cc1ccc(C(F)(F)F)cn1)C(=O)c1cnc2nc(N)c3c(c2c1)COC3
22

Also, CN(Cc1ccc(C(F)(F)F)cn1)C(=O)c1ccc2nc(N)c3c(c2c1)COC3 please.
14

Likewise for Nc1nc2ccc(C(=O)N3CCOC[C@@H]3c3ccc(C(F)(F)F)cn3)cc2c2c1COC2 ?
14

This collection of values is drawn from ChEMBL document CHEMBL6109134.
